Reference source: PubChem BioAssay (NCATS)

test: qHTS profiling of the MIPE4 collection as inhibitors of Plasmodium falciparum (DD2) proliferation (Rep 2) (AID 743346); conditions: P. falciparum Dd2 in erythrocytes, SYBR Green DNA, 72 h; at 28.5 µM unless noted
Label Yes when parasite growth, % of control (lower = inhibition) is strictly below 80%; at or above that, label No.

Report whether reported parasite growth, % of control (lower = inhibition) is lower than 80% (strictly) for CCN1C[C@H](C)n2c(c(O)c3c(=O)n(Cc4ccc(F)c(Cl)c4)nc(C(=O)NC)c32)C1=O
Yes

Consider CC(=O)N(O)CCCP(=O)(O)O . Does its parasite growth, % of control (lower = inhibition) lie strictly below 80%?
Yes

Please determine if Cc1ncc(C[n+]2csc(CCO)c2C)c(=O)[nH]1 is below 80% in terms of parasite growth, % of control (lower = inhibition).
No

For this compound, is parasite growth, % of control (lower = inhibition) lower than 80%? CON=C(C(=O)N[C@@H]1C(=O)N2C(C(=O)O)=C(Cn3ccc(=N)n3CCO)CS[C@H]12)c1csc(N)n1
No

Field: below-cutoff. Rule: recorded parasite growth, % of control (lower = inhibition) strictly less than 80%. Subject: C[C@H](CCC(=O)O)[C@H]1CC[C@H]2[C@H]3[C@@H](CC[C@]12C)[C@@]1(C)CC[C@@H](O)C[C@H]1C[C@@H]3O
Yes

Here's an entry: CC=CCC=CCCC(=O)[C@H]1O[C@@H]1C(N)=O . Is its parasite growth, % of control (lower = inhibition) below 80%?
Yes

# check: parasite growth, % of control (lower = inhibition) < 80% for C[C@H](CCC(=O)O)[C@H]1CC[C@H]2[C@@H]3[C@H](O)C[C@@H]4C[C@H](O)CC[C@]4(C)[C@@H]3CC[C@]12C
Yes

Field: below-cutoff. Rule: recorded parasite growth, % of control (lower = inhibition) strictly less than 80%. Subject: CC(=O)N[C@H]1[C@@H]([C@H](O)[C@H](O)CO)OC(C(=O)O)=C[C@@H]1N=C(N)N
No

In plain terms, does O=C1c2cccc(O)c2C(=O)c2c(O)cc(CO)cc21 come in under 80% for parasite growth, % of control (lower = inhibition)?
No

For CC(C(=O)O)c1ccc(-c2ccccc2)c(F)c1 (configuration not stated) , is the recorded parasite growth, % of control (lower = inhibition) below the cut-off of 80%?
No

Hello, is parasite growth, % of control (lower = inhibition) of the following compound strictly smaller than 80%? CCCNC(=O)Nc1ccc(Oc2ncnc3cc(OC)c(OC)cc23)cc1Cl
Yes

Strictly below 80% in parasite growth, % of control (lower = inhibition)? CNC1[C@H](O)C(O[C@@H]2C(O)C(O[C@H]3O[C@H]([C@@H](C)NC)CC[C@H]3N)[C@@H](N)C[C@H]2N)OC[C@]1(C)O (some centres not stated)
No

Given CN1[C@H]2CC(OC(=O)[C@@H](CO)c3ccccc3)C[C@H]1[C@H]1O[C@H]12 (some centres not stated) , is recorded parasite growth, % of control (lower = inhibition) strictly lower than 80%?
Yes

Could you please tell me whether parasite growth, % of control (lower = inhibition) recorded for Cc1cn([C@@H]2C[C@@H](O)[C@H](CO)O2)c(=O)[nH]c1=O is less than 80%?
No

Record C[C@H]1[C@H](NC(=O)C(=NOC(C)(C)C(=O)O)c2csc(N)n2)C(=O)N1S(=O)(=O)O : is its parasite growth, % of control (lower = inhibition) strictly below 80%?
No

Dear colleague, could you confirm whether parasite growth, % of control (lower = inhibition) of C[C@@H](c1ncncc1F)[C@](O)(Cn1cncn1)c1ccc(F)cc1F falls below 80%? Thanks.
No

Does COC1CCC(N(C(=O)C2CCC(C)CC2)c2cc(C3=CCCCC3)sc2C(=O)O)CC1 (configuration not stated) have parasite growth, % of control (lower = inhibition) strictly under 80%?
Yes

Threshold test, parasite growth, % of control (lower = inhibition) < 80%: CC(N[C@H]1CCCC[C@H]1NC(=O)c1ccc(Cl)cc1)c1cccc2ccccc12 (some centres not stated)
Yes

Determine if NC(=O)c1ncn([C@@H]2O[C@H](CO)[C@@H](O)[C@@H]2O)n1 shows parasite growth, % of control (lower = inhibition) strictly lower than 80%.
Yes
